test system: Setaria faberi (SETFA); assay: Pre-emergence glasshouse herbicide test, Setaria faberi; assay type: in vivo; details: 1000 g/h, evaluated after 13 days, five point scale
Reported percentage damage caused to the plant, PRE Application SETFA is given for each of the following molecules.
OBSERVABLE: percentage damage caused to the plant, PRE Application SETFA

| MOLECULE | VALUE REPORTED |
| --- | --- |
| CCCn1nnnc1NC(=O)c1nn2cnn(-c3ccccc3)c2nc1=O | 5 (5=80-100%) |
| CCCCn1nnnc1NC(=O)c1nn2cnn(-c3ccc(F)cc3)c2nc1=O | 5 (5=80-100%) |
| CCCn1nnnc1NC(=O)c1nn2cnn(-c3cccc(OC)c3)c2nc1=O | 5 (5=80-100%) |
| COc1ccc(-n2ncn3nc(C(=O)Nc4nnnn4C)c(=O)nc23)cc1 | 5 (5=80-100%) |
| Cn1ncnc1NC(=O)c1nn2cnn(-c3ccc(F)cc3)c2nc1=O | 5 (5=80-100%) |
| Cc1cccc(-n2ncn3nc(C(=O)Nc4nnnn4C)c(=O)nc23)c1 | 5 (5=80-100%) |
| O=C(c1nn2cnn(-c3ccc(C(F)(F)F)cc3)c2nc1=O)C1C(=O)C2CCC(C2)C1=O (stereo not drawn) | 5 (5=80-100%) |
| Cn1cnnc1NC(=O)c1nn2cnn(-c3ccc(F)cc3)c2nc1=O | 1 (1=0-19%) |
| O=C1CCCC(=O)C1C(=O)c1nn2cnn(-c3ccc(F)cc3)c2nc1=O | 5 (5=80-100%) |
| Cn1nnnc1NC(=O)c1nn2cnn(-c3ccc(C(F)(F)F)cc3)c2nc1=O | 5 (5=80-100%) |
| CCCCn1nnnc1NC(=O)c1nn2cnn(-c3ccc(C(F)(F)F)cc3)c2nc1=O | 3 (3=40-59%) |
| Cn1nnnc1NC(=O)c1nn2cnn(-c3ccc(F)cc3)c2nc1=O | 5 (5=80-100%) |
| Cc1ccccc1-n1ncn2nc(C(=O)Nc3nnnn3C)c(=O)nc12 | 5 (5=80-100%) |
| O=C1CCCC(=O)C1C(=O)c1nn2cnn(-c3cccc(Cl)c3)c2nc1=O | 5 (5=80-100%) |
| Cn1nnnc1NC(=O)c1nn2cnn(CCCC(F)(F)F)c2nc1=O | 5 (5=80-100%) |
| CCCn1nnnc1NC(=O)c1nn2cnn(CCC)c2nc1=O | 4 (4=60-79%) |
| CCCCn1nnnc1NC(=O)c1nn2cnn(-c3ccc(OC)cc3)c2nc1=O | 5 (5=80-100%) |
| CCn1nnnc1NC(=O)c1nn2cnn(-c3cccc(Cl)c3)c2nc1=O | 4 (4=60-79%) |
